The measurements presented in this section are drawn from PubChem BioAssay AID248.

Provide the recorded T/C for the entries that follow.
test system: L1210 leukemia ip in BDF1 mice, survival T/C; assay: NCI In Vivo Anticancer Drug Screen. Data for tumor model L1210 Leukemia (intraperitoneal) in B6D2F1 (BDF1) mice; conditions: endpoint: mean survival time; dose: 400.0 mg/kg/injection; schedule: Q04DX003 (ip); vehicle: saline; higher = longer survival
Inconclusive results and toxic doses are left out.

Please review the entries below; each comes with its answer.
CN(C)C(=O)NNC(=O)N(C)C | 100 % of control
CSc1ccccc1C(O)Cc1ccc([N+](=O)[O-])cc1 (stereo unspecified) | 95 % of control

Dear reader, for each entry below, please note its T/C.
1. Cc1ccc(S(=O)(=O)CCCCCl)cc1
2. CC(=O)Nc1ccc(N)cc1N
3. COC(=O)C1(C)CCc2c(ccc3ccccc23)C1=O (stereo unspecified)
4. CC(O)COCc1ccccc1 (stereo unspecified)

**Result**
1. 98 % of control
2. 89 % of control
3. 102 % of control
4. 90 % of control

====

Provide the recorded T/C for the entries that follow.
tested on: L1210 leukemia ip in BDF1 mice, survival T/C; test: NCI In Vivo Anticancer Drug Screen. Data for tumor model L1210 Leukemia (intraperitoneal) in B6D2F1 (BDF1) mice; conditions: endpoint: mean survival time; dose: 200.0 mg/kg/injection; schedule: Q01DX009 (ip); vehicle: saline with Tween-80; higher = longer survival
Toxic doses and inconclusive results are not listed.

Please review the entries below; each comes with its answer.
O=C(N/N=C\c1ccc([N+](=O)[O-])cc1)c1ccncc1 | 94 % of control
COC1OC(C(O)CO)C(O)C(O)C1O (stereo not given) | 100 % of control
O=C(O)c1cccc2[nH]c(=O)oc(=O)c12 | 106 % of control
[NH-]C(CC(N)=O)C(=O)O.[NH-]C(CC(N)=O)C(=O)O.[Pd+2] (stereo not given) | 108 % of control

--- query ---
Value of T/C reported for the compound `Cc1ccc(C(C)(C)Cl)cc1O` is 93 % of control

====

Tested on: L1210 leukemia ip in BDF1 mice, survival T/C
Test: NCI In Vivo Anticancer Drug Screen. Data for tumor model L1210 Leukemia (intraperitoneal) in B6D2F1 (BDF1) mice
Details: endpoint: mean survival time; dose: 50.0 mg/kg/injection; schedule: Q04DX003 (ip); vehicle: saline; higher = longer survival
Procedure: The antitumor activity of compounds was measured in mice bearing transplantable tumors. Survival or tumor size were measured and the results are expressed as the measurement made in the treated group (T) divided by the measurement made in the vehicle treated control group (C). The tumor model used in this assay is L1210 Leukemia (intraperitoneal) in B6D2F1 (BDF1) mice
Inconclusive results and toxic doses are left out.
Provide the recorded T/C for the entries that follow.

Cc1ccc(C(C)C)c(OCC(O)CN2CC=CCC2)c1 (stereo unspecified) | 112 % of control
CCC(C1CCC(O)CC1)C(CC)C1CCC(C2=CC(=O)OC2)CC1 (stereo unspecified) | 94 % of control
CC1NCCOC1c1ccccc1 (stereo unspecified) | 103 % of control

Dear reader, for each entry below, please note its T/C.
1. CC(=O)NCCCCCC(=O)O
2. CN(C)CCOc1ccc(Cl)cc1Cc1ccccc1
3. CCOC(=O)C(C#N)N=O (stereo unspecified)

**Result**
1: 102 % of control; 2: 94 % of control; 3: 100 % of control
